All figures here come from patent US20230322924A1.

target or test system: T1, TMEW1 (TMEFF2-FL-ECD-His-Avitag) (human, UniProt Q9UIK5 41-320)
T1 construct: Human TMEFF2 ECD with C-terminal G3S, 6xHis tag and Avi-tag, all in the entry; also called TMEFF2 ECD
T1 sequence: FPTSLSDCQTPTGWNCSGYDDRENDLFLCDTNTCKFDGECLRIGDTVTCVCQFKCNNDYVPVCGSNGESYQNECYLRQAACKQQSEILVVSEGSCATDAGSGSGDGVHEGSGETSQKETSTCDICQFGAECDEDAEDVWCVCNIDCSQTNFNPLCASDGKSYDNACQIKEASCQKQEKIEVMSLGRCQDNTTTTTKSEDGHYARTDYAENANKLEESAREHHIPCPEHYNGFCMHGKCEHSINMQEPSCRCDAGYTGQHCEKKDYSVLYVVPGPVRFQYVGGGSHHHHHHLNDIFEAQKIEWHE
protocol summary: ProteOn SPR, mAb captured on anti-human Fc, TMEFF2 as analyte
pKd: −log10 of the molar value.
Here the recorded pKd is given for each entry.

- binder: "TMEB674 (antibody, human IgG4 S228P, kappa, F234A L235A, V domains shown, IgG4 PAA anti-TMEFF2; also called TMEH410/TMEL126) VH: VQLLESGGGLVQPPGGSLRLSCAASGFTFSSYSMSWVRQAPGKGLEWVSVISGGGSFTSYADSVKGRFTISRDNSNNTLYLQMSSLRAEDTAFYYCARMPLNSPHDCWGQGTLVTVSS VL: AIQMTQSPSSLSASVGDRVTITCRASQGIRNDLGWYQQKPGKAPKLLIYAASSLQSGVPSRFSGSGSGTDFTLTISSLQPEDFATYYCLQDYNYSLTFGGGTKVEIRR"
  pKd: 10.00
- binder: "TMEB570 (antibody, human IgG4 S228P, kappa, F234A L235A, V domains shown, IgG4 PAA anti-TMEFF2; also called TMEH396/TMEL112) VH: QVQLVQSGAEVKKPGSSVKVSCKASGGTFSSYYISWVRQAPGQGLEWMGGIIPISGRANYAQKFQGRVTITADESTSTAYMELSSLRSEDTAVYYCARDGYSSGRSTTYAFDYWGQGTLVTVSS VL: EIVLTQSPGTLSLSPGERATLSCRASQSVSTYYLAWYQQKPGQAPRLLIYGASYRATGIPDRFSGSGSGTDFTLTISRLEPEDFAVYYCQQYGHSPITFGQGTKVEIKR"
  pKd: 9.96
- binder: "TMEB565 (antibody, human IgG4 S228P, kappa, F234A L235A, V domains shown, IgG4 PAA anti-TMEFF2; also called TMEH396/TMEL111) VH: QVQLVQSGAEVKKPGSSVKVSCKASGGTFSSYYISWVRQAPGQGLEWMGGIIPISGRANYAQKFQGRVTITADESTSTAYMELSSLRSEDTAVYYCARDGYSSGRSTTYAFDYWGQGTLVTVSS VL: EIVLTQSPGTLSLSPGERATLSCRASQSVATYYLAWYQQKPGQAPRLLIYGASSRATGIPDRFSGSGSGTDFTLTISRLEPEDFAVYYCQQYGYNPITFGQGTKVEIKR"
  pKd: 10.70
- binder: "TMEB675 (antibody, human IgG4 S228P, kappa, F234A L235A, V domains shown, IgG4 PAA anti-TMEFF2; also called TMEH411/TMEL127) VH: EVQLLESGGGLVQRGGSLRPSCAASGFTFSSYSMSWVRQAPGKGLEWVSVISGSGGFTDYADSVKGRFTISRDNSKNTLYLHMNSLRAEDTAVYYCARMPLNSPHDYWGQGTLVTVSS VL: AIQMTQSPSSLSASVGDRVTITCRASQGIRNDLGWYQQKPGKAPKLLIYAASSLQSGVPSRFSGSGSGTDFTLTISSLQPEDFATYYCLQDYNYALTFGGGTKVEIKR"
  pKd: 10.00
